Kindly state CC50 at 72 h for each of the entries shown.
- Method: Calcein AM cytotoxicity assay, BJ cells
- Test Conditions: human, bj fibroblasts

q: Look up CC50 at 72 h for this compound: Oc1ccc(CNc2nc(F)nc3c2ncn3C2CCCO2)cc1O (stereo not drawn)
a: > 167 µM

q: What do we get for Cc1cccc(CNc2nc(F)nc3c2ncn3C2CCCO2)c1O (stereo not drawn) ?
a: 161 µM

q: What do we get for COc1cc(CNc2nc(F)nc3c2ncn3C2CCCO2)cc(OC)c1 (stereo not drawn) ?
a: > 167 µM

q: What do we get for Cc1cc(CNc2nc(F)nc3c2ncn3C2CCCO2)ccc1O (stereo not drawn) ?
a: > 167 µM

q: What do we get for Oc1cc(O)cc(CNc2nc(F)nc3c2ncn3C2CCCO2)c1 (stereo not drawn) ?
a: > 167 µM

q: What do we get for COc1cc(CNc2nc(F)nc3c2ncn3C2CCCO2)cc(OC)c1O (stereo not drawn) ?
a: > 167 µM

q: What do we get for Oc1ccc(CNc2nc(F)nc3c2ncn3C2CCCO2)o1 (stereo not drawn) ?
a: > 167 µM

q: What do we get for COc1ccc(CNc2nc(F)nc3c2ncn3C2CCCO2)c(OC)c1 (stereo not drawn) ?
a: > 167 µM

q: What do we get for CC(C)=CCNc1nc(F)nc2c1ncn2C1CCCO1 (stereo not drawn) ?
a: > 167 µM

q: What do we get for COc1ccc(CNc2nc(F)nc3c2ncn3C2CCCO2)c(O)c1 (stereo not drawn) ?
a: 132 µM

q: What do we get for Oc1ccoc1CNc1nc(F)nc2c1ncn2C1CCCO1 (stereo not drawn) ?
a: > 167 µM

q: What do we get for CC(C)=CCNc1nc(F)nc2c1ncn2C1CCCCO1 (stereo not drawn) ?
a: 153 µM

q: What do we get for COc1ccc(OC)c(CNc2nc(F)nc3c2ncn3C2CCCO2)c1 (stereo not drawn) ?
a: > 167 µM

q: What do we get for Oc1ccccc1CNc1ncnc2nc[nH]c12 [ortho-topolin, reference compound] ?
a: 108 µM

q: What do we get for Cc1cc(O)cc(CNc2nc(F)nc3c2ncn3C2CCCO2)c1 (stereo not drawn) ?
a: > 167 µM

q: What do we get for COc1cc(O)cc(CNc2nc(F)nc3c2ncn3C2CCCO2)c1 (stereo not drawn) ?
a: > 167 µM

q: What do we get for COc1cc(O)cc(OC)c1CNc1nc(F)nc2c1ncn2C1CCCO1 (stereo not drawn) ?
a: > 167 µM

q: What do we get for COc1ccc(CNc2nc(F)nc3c2ncn3C2CCCCO2)o1 (stereo not drawn) ?
a: > 167 µM

q: What do we get for Cc1ccc(O)c(CNc2nc(F)nc3c2ncn3C2CCCO2)c1 (stereo not drawn) ?
a: > 167 µM

q: What do we get for C/C(=C\CNc1nc(F)nc2c1ncn2C1CCCCO1)CO (stereo not drawn) ?
a: > 167 µM

q: What do we get for C/C(=C/CNc1nc(F)nc2c1ncn2C1CCCCO1)CO (stereo not drawn) ?
a: > 167 µM

###

- Method: Calcein AM cytotoxicity assay, BJ cells
- Test Conditions: human
Kindly state IC50 at 72 h for each of the entries shown.

q: Look up IC50 at 72 h for this molecule: COc1ccccc1CNc1nc(F)nc2c1ncn2C1CCCO1 (stereo not drawn)
a: > 167 µM

q: What do we get for Oc1cccc(CNc2nc(F)nc3c2ncn3C2CCCCO2)c1 (stereo not drawn) ?
a: > 167 µM

q: What do we get for Fc1nc(NCc2ccco2)c2ncn(C3CCCCO3)c2n1 (stereo not drawn) ?
a: 132 µM

These data points were gathered from patent EP4178959B1.
